Test system: Tov-21-G
Test: Primary qHTS to identify gynecologic anti-cancer compounds using libraries of approved drugs and bioactive compounds (AID 1345084); further: nearly all actives have a fitted effect of over 55% in size; further: potency means the concentration at half of the fitted maximal effect
Settings: Gynecologic cancer cell panel viability, ATPlite luminescence, 48 h; series mostly up to 57.5 µM
Results filed as inconclusive are left out. The source made the active and inactive calls. The call rests on the fitted dose curve; in most records, active means well fitted cell-killing curve with a large enough effect; inconclusive means small, poorly fitted or top-dose-only effect, or effect the other way; inactive means flat fitted curve, though single readings scatter.
measureName: Potency

Some molecules with recorded Potency:
* Cc1cc(O)c(-c2ccc([C@@H](C)CN(C)C)cc2)c2c1[nH]c(=O)c1sccc12 | 0.316 µM (active)
* C=C(C)C1CCC2(C(=O)O)CCC3(C(=O)O)C(CCC4C5(C)CCC(O)C(C)(C(=O)O)C5CCC43C)C12 (centres undefined) | inactive
* N#C[C@@H]1CCCN1C(=O)CNC12CC3CC(CC(O)(C3)C1)C2 | inactive
* COc1ccc(CNC(=O)c2sc3nc(C)cc(C)c3c2N)cc1 | inactive
* CCOc1ccc(S(=O)(=O)n2c(C)nc3ccccc32)cc1 | inactive
* CC(C)C(C#N)O[C@@H]1O[C@H](CO[C@@H]2O[C@@H](C)[C@H](O)[C@@H](O)[C@H]2O)[C@@H](O)[C@H](O)[C@H]1O (some centres undefined) | inactive

Provide the reported Potency of each entry below, same order.
1. C=CC(C)(C)c1[nH]c2ccccc2c1C[C@@H]1NC(=O)[C@H](Cc2c[nH]c3ccccc23)NC1=O
2. C=C[C@H]1C(O[C@@H]2O[C@H](CO)[C@@H](O)[C@H](O)[C@H]2O)OC=C2C(=O)N3CCc4c([nH]c5ccccc45)C3CC21 (some centres undefined)
3. CCOCCOC(=O)/C=C/c1ccc(OC)cc1

[reply]
1: inactive; 2: inactive; 3: inactive

---

Test system: HaCat
Test: Cytotoxic Profiling of Annotated Libraries Using Quantitative High-Throughput Screening (AID 1296008); further: nearly all actives have a fitted effect of over 60% in size
Settings: Five cell lines viability, CellTiter-Glo ATP luminescence, 48-72 h
Inconclusive results are not listed. Calls of active or inactive are those of the source. The call rests on the fitted dose curve; in most records, active means well fitted inhibition curve with a large enough effect; inconclusive means small, poorly fitted or top-dose-only effect; inactive means flat fitted curve, though single readings scatter.
Would you mind answering with one of these outcomes? active, inactive

Solved cases below.
* C=C1C[C@@]23CCC4[C@@](C)(CCC[C@@]4(C)C(=O)OC)C2CC[C@@H]1C3 (some centres undefined) | inactive
* C[C@@H]1C[C@@H]2O[C@H]2/C=C\C=C\C(=O)Cc2c(Cl)c(O)cc(O)c2C(=O)O1 | active

[ask] For this compound, state the assay outcome: "COC(=O)C1=CO[C@@H](O[C@@H]2O[C@H](CO)[C@@H](O)[C@H](O)[C@H]2O)[C@@H]2C(COC(C)=O)=C[C@H](O)[C@H]12"
[reply] inactive

[ask] For this compound, state the assay outcome: CC1(C)CC[C@]2(C(=O)O[C@@H]3O[C@H](CO)[C@@H](O)[C@H](O)[C@H]3O)CC[C@]3(C)C(=CCC4[C@@]5(C)CC[C@H](O[C@@H]6O[C@H](C(=O)O)[C@@H](O)[C@H](O)[C@H]6O)[C@@](C)(CO)C5CC[C@]43C)C2C1 (some centres undefined)
[reply] inactive

[ask] For this compound, state the assay outcome: CN(C)C/C=C/C(=O)Nc1cc2c(Nc3ccc(F)c(Cl)c3)ncnc2cc1OC1CCOC1 (centres undefined)
[reply] active

[ask] For this compound, state the assay outcome: "C[C@H](CCC(=O)O)[C@H]1CC[C@H]2[C@@H]3C[C@H](O)[C@@H]4C[C@H](O)CC[C@]4(C)[C@H]3CC[C@]12C"
[reply] inactive
